B1: HDV Ribozyme (parent)
chain: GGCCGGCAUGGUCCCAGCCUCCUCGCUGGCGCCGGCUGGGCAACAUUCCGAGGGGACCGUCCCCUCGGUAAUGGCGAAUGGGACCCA

# Variants of: B1
# assay_comment: self-cleavage, relative activity (ratio to wild type); higher = more cleavage; co-transcriptional
Decide by self-cleavage: equal to or exceeding 0.3 means TRUE, less means FALSE.

{"mutation_descriptor": "A16U G39U", "cat": "TRUE"}
{"mutation_descriptor": "C26U U60A", "cat": "TRUE"}
{"mutation_descriptor": "C19G A42G", "cat": "FALSE"}

Task: Hi team, for C18U G81C , is the recorded self-cleavage at or above 0.3?
Output: FALSE

Task: Hi team, for C15U A45C , is the recorded self-cleavage at or above 0.3?
Output: FALSE

Task: Hi team, for C75A C84A , is the recorded self-cleavage at or above 0.3?
Output: FALSE

Task: Hi team, for G34U A51U , is the recorded self-cleavage at or above 0.3?
Output: FALSE

Task: Hi team, for A45G C62U , is the recorded self-cleavage at or above 0.3?
Output: TRUE

Origin of values: the RNAGym collection of RNA variant scans (doi:10.7554/elife.80360)
